- System: UACC-257 melanoma
- test.protocol: NCI tumour cell line growth inhibition, 48 h
As shown below, each of these compounds has a reported TGI value.

C/C(CC(=O)Nc1cccc([N+](=O)[O-])c1)=N\NC(=O)C[n+]1ccccc1 | > 100 µM
C=C1CC/C=C(\C)CC[C@H](C(=C)C)[C@@H](O)/C=C(/CO)CCC1O (stereo partly drawn) | > 100 µM
C=CCN=C(N/N=C/c1ccc([N+](=O)[O-])o1)NS(=O)(=O)c1cc(C(=O)Nc2ccccc2)c(Cl)cc1SCC(N)=O | 49 µM
O=C(O)CCC1NC(/C(=C/c2ccccc2O)NC(=O)c2ccccc2)OC1=O (stereo not drawn) | > 100 µM
O=C1CCS/C(=N/S(=O)(=O)c2ccc(N3N=C4c5ccccc5CC4C3c3cccs3)cc2)N1Cc1ccccc1 (stereo not drawn) | 50.7 µM

Identify measured TGI corresponding to CC(C)[C@@H]1NC(=O)[C@@H]2N=C(O[C@H]2C)[C@H](C(C)C)NC(=O)C2N=C1O[C@H]2C > 100 µM

Identify measured TGI corresponding to Clc1ccc(C2=NCON=C2c2ccc(Cl)cc2)cc1 61.4 µM

Identify measured TGI corresponding to Oc1ccccc1C=Nc1nc(OCc2ccccc2)nc2[nH]ncc12 > 100 µM

Identify measured TGI corresponding to COC(=O)c1ccccc1C1CN=NC12Cc1c(C)ccc(C)c1C2=O (stereo not drawn) > 100 µM

Identify measured TGI corresponding to COc1ccc2c(c1)[n+](=O)c(C(C)=O)c(C)n2[O-] > 100 µM

Identify measured TGI corresponding to O=C(N/N=C/c1ccc(F)cc1)c1ccc(C(F)(F)F)nc1Nc1cccc(C(F)(F)F)c1 6.72 µM
